Where do these numbers come from? They come from the RNAGym collection of RNA variant scans (doi:10.7554/elife.90254).

B1: LINE1-full (parent)
chain: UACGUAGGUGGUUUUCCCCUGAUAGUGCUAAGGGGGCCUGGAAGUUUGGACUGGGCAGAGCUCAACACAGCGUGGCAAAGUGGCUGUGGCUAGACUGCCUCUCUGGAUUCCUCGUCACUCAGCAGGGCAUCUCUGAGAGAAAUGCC

Variants of: B1
Assay: self-cleavage, relative activity (ratio to wild type); higher = more cleavage; in vitro, sequencing; the parent is a self-cleaving ribozyme
Rule: self-cleavage under 1 gives NO, otherwise YES.

* G36C U52A | NO
* U13C A65C | NO
* U5A U62A | NO
* U12A G21A | YES
* A42G G88A | NO
* U12C G35U | YES
* A65G U85G | NO
* A79U A117G | YES
* A24G G54U | NO
* G60U | NO

Task: Please tell me: is the variant C101U U132A at or over 1 in terms of self-cleavage?
Result: YES

Task: Please tell me: is the variant U46C A78C at or over 1 in terms of self-cleavage?
Result: YES

Task: Please tell me: is the variant G105A A141G at or over 1 in terms of self-cleavage?
Result: NO
